Field: pSTAT5a,b fold EC50 shift, Mouse Primary NK cells (muβγ). Provide a value for each of the binders that follow.
biological target: Recombinant human IL-2 (human, UniProt P60568 21-153); test: cell-based or functional assay
Please state the figure in fold; there is no need to write the unit.

## Task Using the record for XPA.92.042 (antibody, V domains shown, Tested as purified full-length human IgG) VH: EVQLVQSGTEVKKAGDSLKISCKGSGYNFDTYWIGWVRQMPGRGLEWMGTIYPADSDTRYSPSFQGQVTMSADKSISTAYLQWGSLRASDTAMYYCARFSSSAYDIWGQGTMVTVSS VL: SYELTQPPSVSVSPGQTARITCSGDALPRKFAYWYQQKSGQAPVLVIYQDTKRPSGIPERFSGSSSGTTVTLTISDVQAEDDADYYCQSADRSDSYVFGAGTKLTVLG , report its pSTAT5a,b fold EC50 shift, Mouse Primary NK cells (muβγ).
## Result 14

## Task Quick one: XPA.92.019 (antibody, V domains shown, Tested as purified full-length human IgG; also called mAb19) VH: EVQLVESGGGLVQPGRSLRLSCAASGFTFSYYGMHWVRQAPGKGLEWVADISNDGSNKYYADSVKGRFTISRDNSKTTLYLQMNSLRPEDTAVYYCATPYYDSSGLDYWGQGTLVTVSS VL: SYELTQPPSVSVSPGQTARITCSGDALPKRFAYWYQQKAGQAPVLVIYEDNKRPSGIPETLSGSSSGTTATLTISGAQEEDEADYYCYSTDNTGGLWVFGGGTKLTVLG
## Result 15

## Task Quick one: XPA.92.041 (antibody, V domains shown, Tested as purified full-length human IgG) VH: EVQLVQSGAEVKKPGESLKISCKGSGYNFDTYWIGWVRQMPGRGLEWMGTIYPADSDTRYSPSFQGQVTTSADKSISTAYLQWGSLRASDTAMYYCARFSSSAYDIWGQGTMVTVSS VL: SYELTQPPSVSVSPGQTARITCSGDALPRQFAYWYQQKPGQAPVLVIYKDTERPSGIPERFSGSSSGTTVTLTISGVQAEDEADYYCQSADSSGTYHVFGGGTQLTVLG
## Result 12

## Task Quick one: XPA.92.099 (antibody, V domains shown, Tested as purified full-length human IgG; also called mAb99; clone 99) VH: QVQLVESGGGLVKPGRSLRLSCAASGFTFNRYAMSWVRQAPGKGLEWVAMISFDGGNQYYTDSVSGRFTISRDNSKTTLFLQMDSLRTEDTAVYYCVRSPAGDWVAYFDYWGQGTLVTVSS VL: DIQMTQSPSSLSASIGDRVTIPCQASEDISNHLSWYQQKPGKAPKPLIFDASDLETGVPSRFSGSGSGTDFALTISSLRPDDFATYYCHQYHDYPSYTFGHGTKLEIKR
## Result 17
